The following molecules are shown together with reported log10(IC50) values.
- Protocol notes: Inhibition of gamma-secretase-mediated APP cleavage assessed as amyloid beta40 level after 2 hrs by ELISA
Quantity measured: log10(IC50) (log10 of the value in nM)

> print(dat)
                                    molecule  quantity.measured  numeric.value
 1  O=C1c2[nH]ncc2C(C2CC2)N(S(=O)(=O)c2ccc(C(F)(F)F)cc2)C12CC2 (racemic)        log10(IC50)           0.28
 2  CC(C)(C)C1C(=O)c2[nH]ncc2C(C2CC2)N1S(=O)(=O)c1ccc(C(F)(F)F)nc1 (stereo in doubt; 3t)        log10(IC50)          -0.70
 3  CC(C)(C)C1C(=O)c2[nH]ncc2C(C2CC2)N1S(=O)(=O)c1ccc(C(F)(F)F)nc1 (stereo in doubt; 3u)        log10(IC50)           0.68
 4  CC(C)[C@H]1C(=O)c2[nH]ncc2[C@@H](C(C)C)N1S(=O)(=O)c1ccc(C(F)(F)F)cc1 (relative stereo)        log10(IC50)          -0.30
 5  O=C1c2[nH]ncc2[C@@H](C2CC2)N(S(=O)(=O)c2ccc(C(F)(F)F)nc2)[C@H]1C1CC1 (relative stereo)        log10(IC50)          -0.52
 6  C[C@@H]1N(S(=O)(=O)c2ccc(C(F)(F)F)cc2)[C@H](C2CC2)c2cn[nH]c2C1(F)F (relative stereo)        log10(IC50)           0.00
 7  C[C@@H]1c2cn[nH]c2C(=O)[C@H](C)N1S(=O)(=O)c1ccc(C(F)(F)F)nc1 (stereo in doubt)        log10(IC50)           1.12
 8  COC[C@H]1C(=O)c2[nH]ncc2[C@@H](C2CC2)N1S(=O)(=O)c1ccc(C(F)(F)F)cc1 (relative stereo)        log10(IC50)           0.51
 9  O=C1CN(S(=O)(=O)c2ccc(C(F)(F)F)cc2)[C@H](C2CC2)c2cn[nH]c21        log10(IC50)           0.96
10  CC[C@@H]1c2cn[nH]c2C(=O)[C@H](CC)N1S(=O)(=O)c1ccc(C(F)(F)F)nc1 (relative stereo)        log10(IC50)          -0.10
11  CC1(C)C(=O)c2[nH]ncc2C(C2CC2)N1S(=O)(=O)c1ccc(C(F)(F)F)cc1 (racemic)        log10(IC50)           0.86
12  CCC1c2cn[nH]c2C(=O)CN1S(=O)(=O)c1ccc(C(F)(F)F)cc1 (stereo not drawn)        log10(IC50)           0.81
13  O=C1c2[nH]ncc2C(C2CC2)N(S(=O)(=O)c2ccc(C(F)(F)F)cn2)C12CC2 (stereo in doubt; 16i)        log10(IC50)           0.98
14  O=C1c2[nH]ncc2C(C2CC2)N(S(=O)(=O)c2ccc(C(F)(F)F)nc2)C1c1cc(F)cc(F)c1 (racemic)        log10(IC50)          -0.15
15  O=C1c2[nH]ncc2C(C2CC2)N(S(=O)(=O)c2ccc(C(F)(F)F)cn2)C12CC2 (racemic)        log10(IC50)           1.38
16  O=S(=O)(c1ccc(C(F)(F)F)nc1)N1[C@H](C2CC2)c2cn[nH]c2C(F)(F)[C@H]1C1CC1 (stereo in doubt)        log10(IC50)          -1.00
17  O=C1c2[nH]ncc2C(C2CC2)N(S(=O)(=O)c2ccc(Cl)s2)C12CC2 (racemic)        log10(IC50)           0.30
18  O=C1c2[nH]ncc2[C@@H](C2CC2)N(S(=O)(=O)c2ccc(C(F)(F)F)nc2)[C@@H]1C1CC1 (relative stereo)        log10(IC50)           0.48
19  O=C1CN(S(=O)(=O)c2ccc(C(F)(F)F)cc2)C(C(F)(F)F)c2cn[nH]c21 (stereo not drawn)        log10(IC50)           0.41
20  O=C1c2[nH]ncc2C(C2CC2)N(S(=O)(=O)c2ccc(C(F)(F)F)cn2)C12CC2 (stereo in doubt; 16h)        log10(IC50)           2.95
21  CC(C)C1c2cn[nH]c2C(F)(F)CN1S(=O)(=O)c1ccc(Cl)cc1 (racemic)        log10(IC50)          -0.15
22  O=S(=O)(c1ccc(C(F)(F)F)nc1)N1[C@@H](C2CC2)c2cn[nH]c2C(F)(F)[C@H]1C1CC1 (stereo in doubt)        log10(IC50)          -0.22
23  O=S(=O)(c1ccc(C(F)(F)F)cc1)N1CC(F)(F)c2[nH]ncc2C1C(F)(F)F (racemic)        log10(IC50)          -0.05
24  O=S(=O)(c1ccc(C(F)(F)F)nc1)N1[C@@H](C2CC2)c2cn[nH]c2C(F)(F)[C@@H]1C1CC1 (stereo in doubt)        log10(IC50)          -0.52
25  C[C@H]1C(=O)c2[nH]ncc2[C@@H](C2CC2)N1S(=O)(=O)c1ccc(C(F)(F)F)nc1 (relative stereo)        log10(IC50)          -0.22
26  CC(C)[C@@H]1c2cn[nH]c2C(=O)CN1S(=O)(=O)c1ccc(Cl)cc1        log10(IC50)           0.57
27  O=S(=O)(c1ccc(C(F)(F)F)nc1)N1[C@@H](C2CC2)C(F)(F)c2[nH]ncc2[C@H]1C1CC1 (stereo in doubt)        log10(IC50)          -0.10
28  O=C1c2[nH]ncc2C(C2CC2)N(S(=O)(=O)c2ccc(C(F)(F)F)nc2)C1C1CCOCC1 (racemic)        log10(IC50)           0.00

From: ChEMBL document CHEMBL1158636
